- Target Entity: Sialic acid-binding Ig-like lectin 9 (Homo sapiens) (UniProt Q9Y336)
- Sequence (Q9Y336 whole entry): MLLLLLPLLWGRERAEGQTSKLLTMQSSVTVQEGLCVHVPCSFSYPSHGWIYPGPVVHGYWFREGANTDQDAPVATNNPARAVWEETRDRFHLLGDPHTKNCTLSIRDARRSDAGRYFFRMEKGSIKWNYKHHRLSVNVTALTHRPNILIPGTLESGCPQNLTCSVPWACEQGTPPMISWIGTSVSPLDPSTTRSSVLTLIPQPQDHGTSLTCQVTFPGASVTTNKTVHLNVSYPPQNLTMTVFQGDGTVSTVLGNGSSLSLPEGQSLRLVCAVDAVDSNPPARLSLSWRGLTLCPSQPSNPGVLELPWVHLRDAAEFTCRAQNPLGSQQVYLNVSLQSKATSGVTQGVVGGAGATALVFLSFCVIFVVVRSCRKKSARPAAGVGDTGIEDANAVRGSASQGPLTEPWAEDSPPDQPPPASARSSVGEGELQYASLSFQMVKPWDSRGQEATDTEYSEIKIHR
- Protocol Notes: Hs-Siglec9 ALPHAscreen SOP 20170721
- Set-up: scale not given: direction of the effect not stated beside the values
- Measurement Parameters: 10 µM
// Percent Effect lookup, one value per entry
Reported Endpoint: Percent Effect (%)

>>> recorded_number("COc1cccc(S(=O)(=O)CCN2CCCCC2)c1")
6.82
>>> recorded_number("O=C(c1ccnnc1)N1CCN2C[C@H](Oc3cccc(F)c3)C[C@H]2C1")
6.61
>>> recorded_number("COc1ccc(COCC(O)CNC(=O)c2cc(C)cc(C)c2)cc1 (stereo unspecified)")
-0.514
>>> recorded_number("C[S+]([O-])c1nncn1CC(=O)c1ccc(Cl)c(Cl)c1 (stereo unspecified)")
15.3
>>> recorded_number("Cc1nn(C)c(Cl)c1CNCc1cccnc1N1CCN(C)CC1")
7
>>> recorded_number("CCc1nc(C2CCCN2C(=O)c2nccnc2N)no1 (stereo unspecified)")
-2.27

###

- Target Entity: Tyrosyl-tRNA synthetase, putative (Trypanosoma cruzi (strain CL Brener)) (UniProt Q4DSP6)
- Sequence (whole entry): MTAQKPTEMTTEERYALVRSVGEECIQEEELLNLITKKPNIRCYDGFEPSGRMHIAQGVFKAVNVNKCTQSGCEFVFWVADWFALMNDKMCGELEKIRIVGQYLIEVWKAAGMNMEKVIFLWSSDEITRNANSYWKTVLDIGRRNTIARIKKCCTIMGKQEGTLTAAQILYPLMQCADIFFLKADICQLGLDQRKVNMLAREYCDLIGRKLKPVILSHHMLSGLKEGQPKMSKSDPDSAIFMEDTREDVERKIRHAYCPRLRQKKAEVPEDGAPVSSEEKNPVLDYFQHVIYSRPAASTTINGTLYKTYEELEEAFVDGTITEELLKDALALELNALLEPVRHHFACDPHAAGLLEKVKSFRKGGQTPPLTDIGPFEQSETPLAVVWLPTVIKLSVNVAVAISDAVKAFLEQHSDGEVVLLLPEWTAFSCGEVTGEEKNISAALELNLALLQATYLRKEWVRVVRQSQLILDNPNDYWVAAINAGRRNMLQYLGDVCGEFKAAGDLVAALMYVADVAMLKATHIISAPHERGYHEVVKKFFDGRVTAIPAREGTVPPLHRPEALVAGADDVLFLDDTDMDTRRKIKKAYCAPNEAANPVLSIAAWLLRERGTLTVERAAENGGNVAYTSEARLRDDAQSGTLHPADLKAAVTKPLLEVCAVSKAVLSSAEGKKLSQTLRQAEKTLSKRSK
- Protocol Notes: Trypanosoma cruzi tyrosyl tRNA synthetase (TcYRS) SOP
- Format: functional
- Design: scale not given: direction of the effect not stated beside the values
- Measurement Parameters: 30 µM
Reported Endpoint: Percent Effect (%)

>>> recorded_number("CCN1CC(C(=O)NCc2ccnc(-n3ccnc3C)c2)CC1=O (configuration not stated)")
-2.5
>>> recorded_number("COc1ccc(OC)c(CCNC(=O)NC(C)Cn2ccnc2)c1 (configuration not stated)")
4.88
>>> recorded_number("CCCOc1cc(C)ccc1NC(=O)NCCC(=O)N(C)C")
15
>>> recorded_number("COc1ccccc1-c1noc(CN2CCCC2Cn2cccn2)n1 (configuration not stated)")
0
>>> recorded_number("O=C(c1ccncc1)N1CCC2(CC1)CC(Oc1cccnc1)CO2 (configuration not stated)")
2.56
>>> recorded_number("CN(C(=O)C1CSCN1S(=O)(=O)c1ccc(F)cc1)C1CC1 (configuration not stated)")
11.1
>>> recorded_number("CCCc1noc(CN2CCCC2c2c(C)nn(C)c2OC)n1 (configuration not stated)")
-2.56
>>> recorded_number("O=C1CO[C@@H]2CN(CC3CCOCC3)C[C@H]2N1CC1CC1")
17.9
>>> recorded_number("Cc1cc(C)n(Cc2cccc(C(=O)NCCN3CCOCC3)c2)n1")
16.1
>>> recorded_number("Cc1ccsc1C(=O)NCCCn1nc2ccccn2c1=O")
18.3
>>> recorded_number("CCOc1ncccc1NC(=O)c1cc(C)c(C)s1")
2.56
>>> recorded_number("COc1ccc(C(C)N2CCN(Cc3nccn3C)CC2)cc1Cl (configuration not stated)")
0

###

Listed here: items and their measured Percent Effect.
- Species: Homo sapiens
- Protocol Notes: To identify inhibition of the IFN signalling (Jak-Stat) pathway via expression of an eGFP reporter gene under the control of an IFN-stimulated response element (ISRE) containing MxA promoter.
- Type: functional
- Design: scale not given: direction of the effect not stated beside the values
- Measurement Parameters: 30 µM
Reported Endpoint: Percent Effect (%)

>>> recorded_number("Cc1nc(CN(C)C(=O)Nc2cnn(CC3CCCO3)c2)cs1 (stereo unspecified)")
15
>>> recorded_number("COc1ccccc1[C@@H]1CN(C(=O)c2csc(C)n2)C[C@H]1C(=O)O")
-4.31
>>> recorded_number("CCn1cc(CN(C)C(=O)c2cccc(CCC(C)(C)O)c2)cn1")
9.2
>>> recorded_number("CNC(=O)c1cc2c(nc1NCC1CC1)CCN(c1ccncn1)CC2")
35.2
>>> recorded_number("Cc1ccc(NC(=O)N2CCC(NC(=O)c3ccc(C)o3)CC2)cc1")
8.38
>>> recorded_number("O=C(Nc1cc(C(F)(F)F)c[nH]c1=O)c1ccco1")
-15.5
>>> recorded_number("Cc1cnn(C2CCCN(C(=O)c3cnc4ccccc4n3)C2)c1 (stereo unspecified)")
13
>>> recorded_number("Cc1ccc2c(n1)N(C)CCN(C(=O)C1CC1)C2")
12.1
>>> recorded_number("O=c1c(-c2ccnc(NC3CCOCC3)n2)cnc2sc(Cl)cn12")
12
>>> recorded_number("CC1COCCN1C(=O)c1cccc(OCc2cscn2)c1 (stereo unspecified)")
-21.1
>>> recorded_number("Cn1cc(C2CCCN2Cc2csc(-c3ccsc3)n2)cn1 (stereo unspecified)")
8.82

###

- Target Entity: AMP-activated protein kinase, AMPK (Homo sapiens) (UniProt P54646+O43741+P54619+Q9UGJ0+Q9Y478+Q13131+Q9UGI9)
- Protocol Notes: AMP-dependent Kinase enzyme assay. An in vitro enzyme assay that detects ADP turnover that is directly proportional to AMPK activity. This uses naive AMPK that is activated during the assay with MK-8722
- Assay type: functional
- Parameters: scale not given: direction of the effect not stated beside the values
- Measurement Parameters: 30 µM
Reported Endpoint: Percent Effect (%)

>>> recorded_number("CN(C)C(=O)N1C[C@@H]2CC[C@H](C1)N(C(=O)CCCn1cncn1)C2")
0.473
>>> recorded_number("CCN(CC)C(CNC(=O)c1ccc(S(C)(=O)=O)cc1)c1ccco1 (stereo unspecified)")
6.63
>>> recorded_number("CCc1nnc2n1CCN(CC(=O)Nc1cc(C(C)(C)C)nn1C)C2")
1.91
>>> recorded_number("Cc1ccccc1N1CCCN(C(=O)CCCS(N)(=O)=O)CC1")
25.9
>>> recorded_number("CCc1ccc(S(=O)(=O)Nc2cn(C)cc(Br)c2=O)cc1")
-3.87
>>> recorded_number("CC(C)n1cc(C(=O)N2Cc3ccccc3OC3(CCOCC3)C2)cn1")
5.88

###

- Target Entity: Ubiquitin-activating enzyme e1, putative (Leishmania donovani (strain BPK282A1))
- Protocol Notes: Leishmania donovani Ubiquitin Activating Enzyme (LdE1)
- Assay type: functional
- Design: scale not given: direction of the effect not stated beside the values
- Measurement Parameters: 30 µM
Potency and affinity values are given separately.
Reported Endpoint: Percent Effect (%)

>>> recorded_number("Cc1cnn(CC2CCCN2Cc2coc(-c3cccs3)n2)c1 (configuration not stated)")
0
>>> recorded_number("O=C(Cc1cccnc1)N1CCC(OCc2ccccc2)CC1")
-8.11
>>> recorded_number("Cc1ccsc1CN(C)Cc1nc2c(cnn2C)c(=O)[nH]1")
15.4
>>> recorded_number("O=C(COC(=O)Cc1cccs1)NCc1cccc(NC(=O)C2CC2)c1")
21.1
>>> recorded_number("CC(C)n1ccnc1C1CCN(C(=O)c2cc[nH]n2)CC1")
8.11
>>> recorded_number("CN(CCNC(=O)c1scnc1Cl)c1ccccc1")
10.7
>>> recorded_number("CO[C@H]1CCN(Cc2cccc(C)n2)[C@@H]2CN(Cc3cccnc3)C[C@H]12")
13.7
>>> recorded_number("CS(=O)(=O)c1ccc(CNC(=O)N2CCC(C(N)=O)C2)cc1 (configuration not stated)")
25.3
>>> recorded_number("c1cnn(CC2CCCN2Cc2nc(-c3ccoc3)no2)c1 (configuration not stated)")
5.33
>>> recorded_number("Cc1nc(N2CCN(C(=O)C(C)(C)C)CC2)cc(-n2cnc(C)c2C)n1")
10.4
>>> recorded_number("COc1cccc(CN(C)C(=O)CN2CCN(c3nccn3C)CC2)c1")
8
>>> recorded_number("Cn1ccc(CN2CCC(CO)CC2)cc1=O")
-1.27

###

- Target Entity: Tyrosyl-tRNA synthetase, putative (Trypanosoma cruzi (strain CL Brener)) (UniProt Q4DSP6)
- Protocol Notes: Trypanosoma cruzi tyrosyl tRNA synthetase (TcYRS) _High Tyrosine SOP; further: in the data most compounds retested in dose-response had high values
- Format: functional
- Parameters: scale not given: direction of the effect not stated beside the values
- Measurement Parameters: 30 µM
Class membership depends on Percent Effect alone; the intervals are interval 1 (below 4%), interval 2 (4% to below 7%), interval 3 (7% or more)

>>> cat("Cc1cc(-c2cnc(NC3CCCC3)nc2-c2ccoc2C)on1")
"interval 2"
>>> cat("CN1[C@H](CN2CCCC2)C[C@@H]2CN(C(=O)c3cccn3C)CC[C@@H]21")
"interval 3"
>>> cat("Cc1noc(C)c1CN1CCc2nn(C(C)C)c(=O)cc2C1")
"interval 2"
>>> cat("CC(C)C(=O)N1CCCC(c2ncncc2-c2ccncc2)C1 (stereo unspecified)")
"interval 1"
>>> cat("CC(=O)N1CCOCC2(CCN(Cc3ccc(C)s3)CC2)C1")
"interval 2"
>>> cat("COc1c(C)cnc(CN2CCC(C(=O)N(C)C)CC2)c1C")
"interval 1"
>>> cat("O=C(COCc1ccccc1)N1CCC(OCc2cccnc2)CC1")
"interval 2"
>>> cat("CNc1nc(C)c(C(=O)N2CCCCC2CN2CCCCCC2)s1 (stereo unspecified)")
"interval 3"
>>> cat("CS(=O)(=O)N1Cc2ccccc2C2(CCN(C(=O)c3ccno3)CC2)C1")
"interval 2"
>>> cat("COc1ccc(C2CC(=O)Nc3c2nc2n3CCCC2)cc1OC (stereo unspecified)")
"interval 1"

Reference source: ChEMBL document CHEMBL3988442
